Form field: EC50 (one value per entry).
# study-target: PPARγ (Homo sapiens, UniProt P37231)
# Sequence (P37231 1-505): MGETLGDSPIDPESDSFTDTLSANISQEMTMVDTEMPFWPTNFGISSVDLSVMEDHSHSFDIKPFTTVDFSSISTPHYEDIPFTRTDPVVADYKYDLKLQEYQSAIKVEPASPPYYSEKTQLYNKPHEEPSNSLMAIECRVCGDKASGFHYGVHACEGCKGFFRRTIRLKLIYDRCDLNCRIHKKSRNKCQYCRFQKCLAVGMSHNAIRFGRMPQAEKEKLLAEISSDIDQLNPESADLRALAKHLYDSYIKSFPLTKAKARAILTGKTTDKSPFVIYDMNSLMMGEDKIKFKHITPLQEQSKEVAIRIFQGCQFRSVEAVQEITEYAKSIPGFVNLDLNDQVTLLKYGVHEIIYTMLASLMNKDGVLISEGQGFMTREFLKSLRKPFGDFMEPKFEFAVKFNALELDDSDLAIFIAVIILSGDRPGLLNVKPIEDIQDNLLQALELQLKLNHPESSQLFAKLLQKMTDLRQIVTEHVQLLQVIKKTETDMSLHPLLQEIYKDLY
# method-summary: Hela cell/luciferase reporter gene method, PPARγ agonist activity
# measurement-setup: Hela cells, pPPRE3-TK-Luciferase reporter, 24 hrs incubation; read-out: agonistic activity on PPARγ (EC50)
recorded-metric: EC50

INSERT INTO measurements (molecule, study_target, experimental_result) VALUES
  ('CCc1c(C(=O)/C=C/c2cc(C)c(OC(C)(C)C(=O)O)c(C)c2)oc2cc(SC)ccc12 [Compound 63]', 'PPARγ (Homo sapiens, UniProt P37231)', '95.5 nM'),
  ('CSc1ccc(C(=O)/C=C/c2cc(C)c(OC(C)(C)C(=O)O)c(C)c2)cc1 [Elafibranor, reference compound]', 'PPARγ (Homo sapiens, UniProt P37231)', '86.6 nM'),
  ('Cc1cc(/C=C/C(=O)c2cccc3ccoc23)cc(C)c1OC(C)(C)C(=O)O [Compound 3]', 'PPARγ (Homo sapiens, UniProt P37231)', '577 nM'),
  ('CSc1ccc(C(=O)/C=C/c2cc(C)c(OC(C)(C)C(=O)O)c(C)c2)c2ccoc12 [Compound 27]', 'PPARγ (Homo sapiens, UniProt P37231)', '124 nM'),
  ('CSc1ccc2c(C)c(C(=O)/C=C/c3cc(C)c(OC(C)(C)C(=O)O)c(C)c3)oc2c1 [Compound 62]', 'PPARγ (Homo sapiens, UniProt P37231)', '132 nM'),
  ('COc1ccc(C(=O)/C=C/c2cc(C)c(OC(C)(C)C(=O)O)c(C)c2)c2occc12 [Compound 1]', 'PPARγ (Homo sapiens, UniProt P37231)', '172 nM');

* * *

# study-target: PPARα (Homo sapiens, UniProt Q07869)
# Sequence (Q07869 1-468): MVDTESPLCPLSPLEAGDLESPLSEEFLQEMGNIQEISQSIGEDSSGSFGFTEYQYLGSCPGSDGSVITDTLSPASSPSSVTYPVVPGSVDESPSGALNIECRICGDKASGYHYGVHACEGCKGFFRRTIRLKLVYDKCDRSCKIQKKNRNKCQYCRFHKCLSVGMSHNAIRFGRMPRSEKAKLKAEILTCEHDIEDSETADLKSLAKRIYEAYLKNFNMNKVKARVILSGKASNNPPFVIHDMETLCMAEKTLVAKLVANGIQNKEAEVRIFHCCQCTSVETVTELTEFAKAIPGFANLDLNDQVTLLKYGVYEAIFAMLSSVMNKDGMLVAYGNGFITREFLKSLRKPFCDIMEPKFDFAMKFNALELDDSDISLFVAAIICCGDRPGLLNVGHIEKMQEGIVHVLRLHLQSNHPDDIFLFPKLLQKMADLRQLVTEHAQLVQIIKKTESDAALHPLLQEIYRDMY
# method-summary: Hela cell/luciferase reporter gene method, PPARα agonist activity
# measurement-setup: Hela cells, pPPRE3-TK-Luciferase reporter, 24 hrs incubation; read-out: agonistic activity on PPAα (EC50)
Mark rule met for EC50 under 50 nM, rule not met if at or over.

INSERT INTO assay_data (compound, assigned_label) VALUES
  ('CCOc1ccc2cc(C(=O)/C=C/c3cc(C)c(OC(C)(C)C(=O)O)c(C)c3)oc2c1', 'rule met'),
  ('COc1cc(/C=C/C(=O)c2oc3cc(SC)ccc3c2C)cc(OC)c1OC(C)(C)C(=O)O', 'rule not met'),
  ('CSc1ccc2cc(C(=O)/C=C/c3cc(Cl)c(OC(C)(C)C(=O)O)c(Cl)c3)oc2c1', 'rule met'),
  ('CSc1cccc2oc(C(=O)/C=C/c3cc(C)c(OC(C)(C)C(=O)O)c(C)c3)cc12', 'rule met'),
  ('Cc1cc(/C=C/C(=O)c2oc3cc(SC(C)C)ccc3c2C)cc(C)c1OC(C)(C)C(=O)O', 'rule not met'),
  ('CSc1ccc(C(=O)/C=C/c2cc(C)c(OC(C)(C)C(=O)O)c(C)c2)c2oc(C)nc12', 'rule not met'),
  ('Cc1cc(/C=C/C(=O)c2ccc3sccc3c2)cc(C)c1OC(C)(C)C(=O)O', 'rule not met');
